test: Primary redox qHTS assay for identification of artifact compounds. (AID 1845223); settings: Amplex Red/HRP redox cycling with DTT, fluorescence; series mostly up to 53.8 µM
Results filed as inconclusive are left out. The source made the active and inactive calls. Calls come from the whole dose curve; as a rule, active = well fitted activation curve with a large enough effect; inconclusive = small, poorly fitted or top-dose-only effect; inactive = flat fitted curve, though single readings scatter.

| compound | redox activity (% of DA3003) |
| --- | --- |
| C=C1C(O)CC2C(C(=O)O)=COC(O[C@@H]3O[C@H](COC(=O)/C=C/c4ccc(O)cc4)[C@@H](O)[C@H](O)[C@H]3O)C12 (stereo partly drawn) | inactive |
| O=C(/C=C/c1cccc(S(=O)(=O)Nc2ccccc2)c1)NO | inactive |
| CS(=O)(=O)N1CCC(NC(=O)c2[nH]ncc2NC(=O)c2c(Cl)cccc2Cl)CC1 | inactive |
